# Experimental parameters: in isobutanol, 278.15 K
Property name: solubility (mole fraction)

* O=C1CCCCCCCCCCC1 | 0.0949

###

# Experimental parameters: in toluene, 313.15 K
Property name: solubility (mole fraction)

- O=C1CCCCCCCCCCC1: 0.675

###

# Experimental parameters: in n-butanol, 303.15 K
Property name: solubility (mole fraction)

• O=C1CCCCCCCCCCC1 = 0.327

###

# Experimental parameters: in acetone, 288.15 K
Property name: solubility (mole fraction)

- O=C1CCCCCCCCCCC1: 0.229

###

# Experimental parameters: in isobutanol, 288.15 K
Property name: solubility (mole fraction)

* O=C1CCCCCCCCCCC1 | 0.158
